# Test system: TK-10 renal
# Procedure Summary: NCI tumour cell line growth inhibition, 48 h
Value Kind: TGI (µM)
Write it as a number; the unit µM goes unstated.

query: Need TGI, item O=C(CCc1ccccc1)CC1OC(=O)C(Cl)=C1Cl (centres undefined)
result: 57.7

query: Need TGI, item COc1ccc2c(c1)C(=O)c1c-2n(CCCN(C)C)c(=O)c2cc([N+](=O)[O-])ccc12
result: 5.38

query: Need TGI, item Fc1ccc(Nc2nc(Nc3ccc(-c4nc5ccccc5[nH]4)cc3)c3cn[nH]c3n2)cc1
result: 5.29

query: Need TGI, item O=C(C(=CN1CCN(C(=O)c2ccco2)C1=S)C(=O)c1ccccc1)c1ccccc1
result: 22.1

query: Need TGI, item Cc1cc(N(CCNc2ccnc3cc(Cl)ccc23)Cc2ccc3c(c2)OCO3)nc(N2CCCC2)n1
result: 3.8

query: Need TGI, item O=C1c2cccnc2-c2nccc3c2c1nc1ccccc13
result: 2.84
